EXPERIMENTAL SYSTEM: T1, TX1BP3, O14907
T1 sequence (O14907 10-122, limits assumed, looked up): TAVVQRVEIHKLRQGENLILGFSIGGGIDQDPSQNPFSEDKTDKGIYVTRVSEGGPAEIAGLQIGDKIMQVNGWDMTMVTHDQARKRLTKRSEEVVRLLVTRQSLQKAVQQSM
METHOD DESCRIPTION: holdup assay
Design: key: below the threshold = too weak to quantify, mostly under pKd 3.1 to 4
RECORDED CONDITIONS: plain residues with an end cap or a label only (N-terminal biotin on a linker: ahx)
VALUE KIND: pKd

- PSASCAVTAA [PDLIM4, P50479;P50479-2]: below the threshold
- TVICWPGSLV [LNX2, Q8N448]: 4.59
- ESLLLGPSNF [SHROOM4, Q9ULL8]: below the threshold
- SDSSGQEYSL [KCTD3, Q9Y597]: below the threshold
- RAVEEEESRF [PSCDBP, O60759]: below the threshold
- RRRKRKRTYL [HPV49-L2, P36762]: 3.48
